ASSAY_OVERVIEW: Caco-2 membrane permeability, improved method as used in the following Examples (96-well, 20 to 24 h preincubation)
Assay type: in vitro ADME
DETAILS: human, Caco-2, Caco-2
Positions of bridges follow the written chain, without caps; N, C: chain ends. Non-standard residues stand in square brackets, D forms with d. Residues, ends and D or L forms follow the SMILES beside them. *: point of attachment. NMeAbu(3,3-F2-piperidino) = CN[C@@H](CCN1CCCC(F)(F)C1)C(=O)O; Phe(4-CHF2) = N[C@@H](Cc1ccc(C(F)F)cc1)C(=O)O; Hyp = O=C(O)[C@@H]1C[C@@H](O)CN1; NMeF = CN[C@@H](Cc1ccccc1)C(=O)O; NMeI = CC[C@H](C)[C@H](NC)C(=O)O; dNMeF = CN[C@H](Cc1ccccc1)C(=O)O; NMeL = CN[C@@H](CC(C)C)C(=O)O; Propyl(2R-OH) = C[C@@H](O)C*; NMeV = CN[C@H](C(=O)O)C(C)C; NMeA = CN[C@@H](C)C(=O)O; Piperidide = C1CCN(*)CC1; NBuGly = CCCCNCC(=O)O; Sar = CNCC(=O)O; tBu = CC(C)(C)*

COMPOUND	Papp A→B at 180 min / ×10⁻⁶ cm/s
CCO[C@@H]1C[C@H]2C(=O)N(C)[C@@H](CC(C)C)C(=O)N[C@@H](COC(C)(C)C)C(=O)N3CCC[C@H]3C(=O)N[C@@H]([C@@H](C)O)C(=O)N(C)[C@@H](CC(C)C)C(=O)N(C)[C@@H](CC(C)C)C(=O)N(C)[C@@H](CC(C)C)C(=O)N[C@H](C(=O)N3CCCCC3)CC(=O)N[C@H](CC(C)C)C(=O)N(C)[C@@H]([C@@H](C)CC)C(=O)N2C1 [pd384] ([dL][NMeI][Hyp](Et)[NMeL]S(tBu)PT[NMeL][NMeL][NMeL]D-Piperidide; lactam N-11)	3.3
CC[C@H](C)[C@@H]1NC(=O)[C@H](CC(C)C)N(C)C(=O)CN(C)C(=O)C[C@@H](C(=O)N2CCCCC2)NC(=O)[C@H](C(C)C)N(C)C(=O)[C@H](Cc2ccc(C(F)F)cc2)NC(=O)[C@H](CC(C)C)N(C)C(=O)[C@H](Cc2ccccc2)N(C)C(=O)CN(C)C(=O)[C@H]([C@@H](C)O)NC(=O)[C@H](CC(C)C)N(C)C1=O [pd475] ([Sar][NMeL]I[NMeL]T[Sar][NMeF][NMeL][Phe(4-CHF2)][NMeV]D-Piperidide; lactam N-11)	4.2
CC(C)C[C@@H]1NC(=O)[C@H](Cc2ccccc2)N(C)C(=O)[C@@H](CC(C)C)NC(=O)C[C@@H](C(=O)N2CCCCC2)NC(=O)[C@H](CC(C)C)N(C)C(=O)[C@H](Cc2ccccc2)N(C)C(=O)[C@H](COC(C)(C)C)NC(=O)[C@H](CC(C)C)N(C)C(=O)CN(C)C(=O)[C@H](CCC(=O)N(C)C)NC(=O)[C@H](CC(C)C)N(C)C1=O [pd441] ([dL][NMeF]L[NMeL]E(NMe2)[Sar][NMeL]S(tBu)[NMeF][NMeL]D-Piperidide; lactam N-11)	1.7
CCCCN1CC(=O)N(C)[C@H](Cc2ccccc2)C(=O)N(C)[C@@H](CC(C)C)C(=O)N[C@@H](COC(C)(C)C)C(=O)N(C)[C@@H](CC(C)C)C(=O)N[C@H](C(=O)N2CCCCC2)CC(=O)N(C)CC(=O)N(C)[C@@H](Cc2ccccc2)C(=O)N[C@@H](C(C)C)C(=O)N(C)[C@@H](CC(C)C)C(=O)N[C@@H](COC[C@@H](C)O)C1=O [pd496] ([Sar][NMeF]V[NMeL]S(Propyl(2R-OH))[NBuGly][dNMeF][NMeL]S(tBu)[NMeL]D-Piperidide; lactam N-11)	1
CC(C)C[C@@H]1NC(=O)[C@H](C)N(C)C(=O)C[C@@H](C(=O)N2CCCCC2)NC(=O)[C@H](C(C)C)N(C)C(=O)CN(C)C(=O)[C@H]([C@@H](C)O)NC(=O)[C@H](CCN2CCCC(F)(F)C2)N(C)C(=O)[C@H](Cc2ccccc2)N(C)C(=O)[C@H](CC(C)C)NC(=O)[C@H](Cc2ccccc2)N(C)C(=O)[C@H](CC(C)C)N(C)C1=O [pd391] ([NMeA]L[NMeL][NMeF]L[NMeF][NMeAbu(3,3-F2-piperidino)]T[Sar][NMeV]D-Piperidide; lactam N-11)	2.4
